Tested on: β-galactosidase in CMV-LacZ C2C12 myotubes
Protocol Summary: CMV-LacZ secondary screen in C2C12 myotubes (β-Gal stabilizing assay)
Assay type: cell-based, mouse
Condition Description: 1 uM; SU9516 analogs, C2C12 CMV-LacZ, N=2
Recorded Endpoint: CMV-LACZ in Myotubes, value relative to DMSO
Lab note: record just the number, no unit beside it.

# annotated cases, reported CMV-LACZ in Myotubes, value relative to DMSO shown
Cc1[nH]c(C=C2C(=O)Nc3ccccc32)c(C)c1CCC(=O)O 1.3227
O=Nc1c(-c2c(O)[nH]c3cc(Br)ccc23)[nH]c2ccccc12 0.8864

Field: next molecule
INPUT: What does the data say about its CMV-LACZ in Myotubes, value relative to DMSO? Entry: `Cc1ncc(/C=C2\C(=O)Nc3ccccc32)[nH]1`
OUTPUT: 0.8695

src = patent US9980943B2
